These data points were gathered from PubChem BioAssay (Tox21).

EXPERIMENT: qHTS assay to test for compound auto fluorescence at 460 nm (blue) in HepG2 cell free culture (AID 720685); also: % is scaled to controls: 0 for no effect and ±100 for the full control effect
COND: Cell-free culture medium, blue autofluorescence 405/460 nm; series mostly up to 91.3 µM
The source made the active and inactive calls. Calls follow the shape of the dose curve; as a rule, active = well fitted curve in the direction sought with a large enough effect in the repeat runs; inconclusive = weak or mixed curves; inactive = flat fitted curve, though single readings scatter. Positions of bridges follow the written chain, without caps; N, C: chain ends. Non-standard residues stand in square brackets, D forms with d. Residues, ends and D or L forms follow the SMILES beside them. hArg = N=C(N)NCCCC[C@H](N)C(=O)O; Mpa = O=C(O)CCS
READOUT_NAME: fluorescence, % of fluorescent control

Reference set (10 entries):
MOLECULE	READOUT_NAME	ENDPOINT_RESULT
C=CCOC(=O)CCCCCC	fluorescence, % of fluorescent control	inactive
CC(C)=CCC/C(C)=C/COC=O	fluorescence, % of fluorescent control	inactive
CO[C@@]1(NC(=O)Cc2cccs2)C(=O)N2C(C(=O)O)=C(COC(N)=O)CS[C@@H]21	fluorescence, % of fluorescent control	inactive
NCc1ccc(S(N)(=O)=O)cc1	fluorescence, % of fluorescent control	0.0628% [at 18.6 µM] (inactive)
c1ccc2c(CC3=NCCN3)cccc2c1	fluorescence, % of fluorescent control	inactive
ONc1ccccc1	fluorescence, % of fluorescent control	inactive
COC(=O)CCCCC(=O)O	fluorescence, % of fluorescent control	inactive
C/C(CC(C)C)=N\O	fluorescence, % of fluorescent control	inactive
CC(S)C(C)S (stereo not drawn)	fluorescence, % of fluorescent control	inactive
OCCN1CCOCC1	fluorescence, % of fluorescent control	inactive

Fill in fluorescence, % of fluorescent control for each of the 6 molecules listed.
1. Cc1ccc(C)c([N+](=O)[O-])c1
2. Cc1ccc(C(=O)O)cc1[N+](=O)[O-]
3. c1ccc(-c2nn[nH]n2)cc1
4. Cc1cc(-c2ccccc2)nnc1NCCN1CCOCC1
5. CCCCCCCCCCCCCBr
6. C=CCCCCCCCCC(=O)OCCCC

inactive
inactive
inactive
inactive
inactive
inactive

I'm hoping you can list fluorescence, % of fluorescent control for every molecule here, please.
1. CC(C)COC(=O)c1ccccc1
2. COc1c2occc2c(OC)c2c(=O)cc(C)oc12
3. CCCC(CC)c1ccccc1 (stereo not drawn)

inactive
-0.0661% [at 18.6 µM] (inactive)
inactive

Okay, here is my list. What is fluorescence, % of fluorescent control for each of these?
1. CC(C)CO
2. CCCCCCCCCCCCCCC(=O)NC(CO)CCCCCCCCCCCCCC (stereo not drawn)
3. CCO
4. CC1(C)CC(OC(=O)CCCCCCCCC(=O)OC2CC(C)(C)NC(C)(C)C2)CC(C)(C)N1
5. C[C@H]1[C@@H](c2ccccc2)NC(=O)N1C
6. N#Cc1ccccc1O
7. O=C(O)CNC(=O)CNC(=O)CNC(=O)CSC(=O)c1ccccc1
8. CN1C[C@@H]2C[C@H]1CN2c1cc2c(cc1F)c(=O)c(C(=O)O)cn2C1CC1

1. inactive
2. inactive
3. inactive
4. -0.0702% [at 18.6 µM] (inactive)
5. inactive
6. inactive
7. inactive
8. inactive

# map each molecule to its fluorescence, % of fluorescent control
1. NC(=O)[C@@H]1CSSCCC(=O)N[C@@H](CCCCN=C(N)N)C(=O)NCC(=O)N[C@@H](CC(=O)O)C(=O)N[C@@H](Cc2c[nH]c3ccccc23)C(=O)N2CCC[C@H]2C(=O)N1 ([Mpa][hArg]GDWPC-NH2; disulfide 1-7)
2. CC1=C(C(=O)O)N2C(=O)[C@@H](NC(=O)[C@H](N)C3=CCC=CC3)[C@H]2SC1
3. N[C@@H](CSCCCO)C(=O)O
4. CC1CC(=O)CC(C)(C)C1 (stereo not drawn)
5. [O]=[Mo](=[O])=[O]

inactive
inactive
inactive
inactive
0.041% [at 18.6 µM] (inactive)

I need fluorescence, % of fluorescent control for every entry listed below, if you could help.
1. CC(O)CC(C)O (stereo not drawn)
2. CCCCOC(=O)C(C)O (stereo not drawn)
3. CCC(C)C(C)=O (stereo not drawn)
4. Nc1nc(-c2ccccc2)c(Br)c(=O)[nH]1
5. CCCCCCC1(C)CCC(=O)O1 (stereo not drawn)
6. CN(C)CCN(C)CCO

1. inactive
2. inactive
3. inactive
4. inactive
5. inactive
6. inactive

List reported fluorescence, % of fluorescent control for each of these molecules:
1. CN(C)CC/C=C1/c2ccccc2COc2ccc(CC(=O)O)cc21
2. CCCCOCC(C)O (stereo not drawn)

1: inactive; 2: inactive

Here are 7 molecules. What values of fluorescence, % of fluorescent control were reported for them?
1. COC(=O)c1cccc(Cl)c1
2. CC(C)[C@H]1CC[C@H](C)C[C@@H]1O
3. CC(Oc1cc(Cl)ccc1Cl)C(=O)O (stereo not drawn)
4. c1ccc2cnccc2c1
5. O/N=C/C=N/O
6. NCC1(Cc2noc(=O)[nH]2)CCCCC1
7. CCCCOCCOC(=O)COc1ccc(Cl)cc1Cl

1. inactive
2. inactive
3. inactive
4. inactive
5. inactive
6. inactive
7. inactive

Take each entry in turn and give its fluorescence, % of fluorescent control.
1. OC1OCCOC1O (stereo not drawn)
2. O=C(O)CONC(=O)c1ccccc1
3. COc1nc(N)nc2nc[nH]c12
4. COP(=O)(O)OP(=O)(O)OC
5. CCOC(=O)CC1(C)OCC(C)O1 (stereo not drawn)
6. O=C(O)[C@H](O)c1ccccc1
7. CC/C=C\CCOC(=O)c1ccccc1O

1: inactive; 2: inactive; 3: inactive; 4: inactive; 5: inactive; 6: inactive; 7: inactive

====

EXPERIMENT: Caspase-3/7 induction in HepG2 cells by small molecules, qHTS cell viability counter screen (AID 1346981); also: % is scaled to controls: 0 for no effect and ±100 for the full control effect; nearly all actives have a fitted effect of over 30% in size
COND: CellTiter-Fluor fluorescence, 17 h; series mostly up to 92.4 µM
Records with an inconclusive call do not appear. Active and inactive are the calls of the source. Calls follow the shape of the dose curve; as a rule, active = well fitted cell-killing curve with a large enough effect in the repeat runs; inconclusive = weak or mixed curves, or effect the other way; inactive = flat fitted curve, though single readings scatter.
READOUT_NAME: activity change, negative = cytotoxicity

Example cases with answers are listed next.
MOLECULE	ENDPOINT_RESULT
C=CCOC(=O)CCCCCC	inactive
NCc1ccc(S(N)(=O)=O)cc1	inactive
CC1CCc2c(N3CCC(O)CC3)c(F)cc3c(=O)c(C(=O)O)cn1c23 (stereo not drawn)	inactive
c1ccc2c(CC3=NCCN3)cccc2c1	inactive
COc1cc(OC)nc(O[C@H](C(=O)O)C(OC)(c2ccccc2)c2ccccc2)n1	inactive
Cc1cc(-c2ccccc2)nnc1NCCN1CCOCC1	inactive
CC(C)COC(=O)c1ccccc1	inactive
CCCCOCC(C)O (stereo not drawn)	inactive

// input: 2 molecules below; output: activity change, negative = cytotoxicity for each
1. CC1(C)CC(OC(=O)CCCCCCCCC(=O)OC2CC(C)(C)NC(C)(C)C2)CC(C)(C)N1
2. ONc1ccccc1

1. -0.861% [at 19 µM] (inactive)
2. inactive

Give activity change, negative = cytotoxicity for all molecules that follow.
1. CC1(C)Oc2ccc(C#N)cc2[C@@H](N2CCCC2=O)[C@@H]1O
2. CC(C)Cn1cnc2c1c(=O)n(C)c(=O)n2C
3. C=CC(=O)OCC1CCCO1 (stereo not drawn)

inactive
inactive
inactive

====

EXPERIMENT: qHTS RealTime-Glo MT Cell Viability Assay in HEK293 cells - 40 hour (AID 1224874); also: % is scaled to controls: 0 for no effect and ±100 for the full control effect; nearly all actives have a fitted effect of over 50% in size
COND: RealTime-Glo luminescence; active compounds read low
Results filed as inconclusive are left out.
Please provide measured max response for the entries that follow.
Numbers only, in %.

Solved entries:
MOLECULE	max response (%)
N#Cc1cscn1	9.48
C/C=C(\C)C(C)=O	0.603
O=C(O)CONC(=O)c1ccccc1	1.73
N#Cc1ccccc1O	15.1
Cn1c(=O)c2c(ncn2CCO)n(C)c1=O	3.56
Cc1ccc(C(C)NC(=O)[C@@H](NC(=O)OC(C)C)C(C)C)cc1 (stereo partly specified)	-6.73
CC(CO)(CO)CO	2.55
Cc1cc(C)c(C(=O)O)c(C)c1	1.4

// input: 5 molecules below; output: max response for each
1. Cc1ccc2c(c1)C(=O)c1ccccc1C2=O
2. CC(C)[C@H]1CC[C@H](C)C[C@@H]1O
3. CNCCS(=O)(=O)O
4. CCCC(CC)c1ccccc1 (stereo unspecified)
5. c1ccc2c(CC3=NCCN3)cccc2c1

5.01
2.31
4.21
11.4
-13.3

Working through the 2 molecules below one at a time, give max response for each.
1. CC/C=C\CCOC(=O)c1ccccc1O
2. CC(C)COC(=O)c1ccccc1

19.1
2.33

Batch request: max response per item, same order as input.
1. C#CCN[C@@H]1CCc2ccccc21
2. C=C(C)c1cccc(C(C)(C)N=C=O)c1
3. CC1=C(O)C(=O)C(C)O1 (stereo unspecified)
4. O=NN(CCCl)C(=O)NC1CCCCC1
5. CCn1cc(C(=O)O)c(=O)c2cnc(N3CCCC3)nc21
6. O=C(O)c1cc2ccccc2nc1C(=O)O
7. CC(=O)CC(=O)Nc1ccc(C)cc1C
8. CCC(C)C(=O)OCCc1ccccc1 (stereo unspecified)

[-4.89, 3.52, 2.72, 1.88, 10.4, -2.29, -1.23, -0.807]
